Origin of measurements: patent US4379091A

Assay: in vivo
Conditions: rat, in vivo, po, 58.8 mg/kg
MEASURED_QUANTITY: AUC at 7 h

• CC(C)Cc1ccc(C(C)C(=O)O)cc1 (stereo not shown) = ~190 µg·h/mL

###

Assay: in vivo
Conditions: rat, in vivo, po, 58.8 mg/kg
MEASURED_QUANTITY: concentration at 2 h (ng/mL)

- CC(C)Cc1ccc(C(C)C(=O)O)cc1 (stereo not shown): 32200
